PBM E-score of 8-mer: recorded values
- System: PmTbr T-box DNA-binding domain (GST fusion);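 further: 200 nM protein in PBS on universal arrays averaged over duplicate arrays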
- Sequence: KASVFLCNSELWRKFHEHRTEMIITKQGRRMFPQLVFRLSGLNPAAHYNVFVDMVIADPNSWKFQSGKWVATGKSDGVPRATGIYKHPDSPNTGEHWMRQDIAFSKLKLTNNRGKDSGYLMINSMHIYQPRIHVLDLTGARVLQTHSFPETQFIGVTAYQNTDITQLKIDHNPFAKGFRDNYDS
- PROCEDURE_TEXT: PBM E-score of 8-mer (E-score (dimensionless, -0.5 to 0.5)); higher = stronger binding preference
- APPLIED_CONDITIONS: the construct has about 5 more residues each side
In all, about 33,000 sequences were measured (“E-score (dimensionless, -0.5 to 0.5)”: median about -0.049, highest 2% from about 0.37 on). This excerpt belongs to a sample that is enriched for the highest values.
Lab note: write the figure by itself, no unit.

Please review the entries below; each comes with its answer.
Please report the recorded PBM E-score of 8-mer for CCATACTC .
0.0602

Dear colleague, I am looking for the recorded PBM E-score of 8-mer of the following sequence: TATAAGGA
-0.154

PBM E-score of 8-mer for ATCCTTCA ?
-0.143

What measured PBM E-score of 8-mer goes with CGTGAAAA ?
0.338

Which PBM E-score of 8-mer reading was recorded for the sequence CGTGAACA ?
0.321

For the sequence GCTAAGGA , what PBM E-score of 8-mer is on record?
-0.0831

What does the record list as PBM E-score of 8-mer for AACGCCTA ?
0.279

Please report the recorded PBM E-score of 8-mer for GATCACGC .
0.287

More entries:
Sample AATCACAG — what was its PBM E-score of 8-mer?
0.0723

Form field: reported PBM E-score of 8-mer of CACTGCTG
-0.132

# input sequence: CTGGGACA ; wanted: its PBM E-score of 8-mer
-0.223

Using the record for CATCACAC , report its PBM E-score of 8-mer.
0.458

Name the recorded PBM E-score of 8-mer for TAGTTCGA .
0.16

* * *

- Tested on: PmTbr T-box DNA-binding domain (GST fusion);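 further: 200 nM protein in PBS on universal arrays averaged over duplicate arrays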
- Sequence: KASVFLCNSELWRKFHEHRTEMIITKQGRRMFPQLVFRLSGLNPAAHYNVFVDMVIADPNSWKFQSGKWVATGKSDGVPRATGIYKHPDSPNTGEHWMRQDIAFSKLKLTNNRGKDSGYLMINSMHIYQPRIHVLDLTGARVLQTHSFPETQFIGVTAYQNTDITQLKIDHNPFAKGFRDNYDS
- PROCEDURE_TEXT: PBM E-score of 8-mer (E-score (dimensionless, -0.5 to 0.5)); higher = stronger binding preference
- APPLIED_CONDITIONS: target sequence: T-box / the construct has about 5 more residues each side
The full ranking holds about 33,000 sequences; the median of “E-score (dimensionless, -0.5 to 0.5)” is about -0.049, and the highest 2% start at about 0.37. Many of the other results were omitted from the sample, so the highest values are more common in it than they were.
PBM E-score of 8-mer by entry:
# answer = number (no unit)

Example results:
Quick check: PBM E-score of 8-mer of CCGACACC ?
0.448

Param item = CCGACATC ; retrieve measured PBM E-score of 8-mer.
-0.0298

What does the data say about its PBM E-score of 8-mer? Entry: ACGACACC
0.421

Which PBM E-score of 8-mer value is on record for GCCAACAC ?
0.354

Reported PBM E-score of 8-mer for ATGACACC : what is it?
0.463

New cases:
What does the record list as PBM E-score of 8-mer for ATAGTAAG ?
-0.216

# get_value(readout='PBM E-score of 8-mer', item= AGGCGTGG )
0.265

Could you tell me which PBM E-score of 8-mer is on file for ATTCTCAC ?
0.435

What value of PBM E-score of 8-mer has been reported for the following sequence? CCCAACAA
0.0135

Form field: reported PBM E-score of 8-mer of AGGCGTGC
0.158

Would you kindly share the measured PBM E-score of 8-mer for ACGACACT ?
0.298

Please report the recorded PBM E-score of 8-mer for GACAACAC .
0.391

Form field: reported PBM E-score of 8-mer of AATCTCTC
-0.0609

Would you kindly share the measured PBM E-score of 8-mer for ACGCGTGA ?
0.38

Reported PBM E-score of 8-mer, sequence GTCAACAA : ____
0.293

* * *

- Tested on: PmTbr T-box DNA-binding domain (GST fusion);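 further: 200 nM protein in PBS on universal arrays averaged over duplicate arrays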
- Sequence: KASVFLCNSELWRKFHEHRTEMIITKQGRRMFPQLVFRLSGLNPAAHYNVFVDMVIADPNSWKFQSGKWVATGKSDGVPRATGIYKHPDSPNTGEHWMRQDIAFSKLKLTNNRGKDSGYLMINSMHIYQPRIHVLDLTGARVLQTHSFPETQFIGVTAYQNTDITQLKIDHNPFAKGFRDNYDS
- PROCEDURE_TEXT: PBM E-score of 8-mer (E-score (dimensionless, -0.5 to 0.5)); higher = stronger binding preference
- APPLIED_CONDITIONS: target sequence: T-box / the construct has about 5 more residues each side
In all, about 33,000 sequences were measured (“E-score (dimensionless, -0.5 to 0.5)”: median about -0.049, highest 2% from about 0.37 on). For the sample, the highest values were picked, then their nearest neighbours and some sequences at random.
VALUE_TYPE: PBM E-score of 8-mer
Give your answer as a number; write no unit.

Reference set (3 entries):
What does the record list as PBM E-score of 8-mer for CAAATTCG ?
0.0471

Given the sequence CGTGTGAA , what is its reported PBM E-score of 8-mer?
0.452

State the recorded PBM E-score of 8-mer for this entry: CACCTCGA
0.448

***
Reported PBM E-score of 8-mer for GACCTCGA : what is it?
-0.0343

* * *

- Test system: PmTbr T-box DNA-binding domain (GST fusion);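 further: 200 nM protein in PBS on universal arrays averaged over duplicate arrays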
- Sequence: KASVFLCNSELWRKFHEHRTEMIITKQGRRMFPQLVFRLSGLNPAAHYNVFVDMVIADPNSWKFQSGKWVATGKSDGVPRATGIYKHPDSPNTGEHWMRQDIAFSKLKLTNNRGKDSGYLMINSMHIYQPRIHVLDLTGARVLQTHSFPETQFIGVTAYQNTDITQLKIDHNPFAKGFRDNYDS
- PROCEDURE_TEXT: PBM E-score of 8-mer (E-score (dimensionless, -0.5 to 0.5)); higher = stronger binding preference
- APPLIED_CONDITIONS: target sequence: T-box / the construct has about 5 more residues each side
Over roughly 33,000 sequences, “E-score (dimensionless, -0.5 to 0.5)” has its median near -0.049; the highest 2% begin near 0.37. The sample holds the highest values, similar sequences and a random draw of the others, so the mix is not that of the screen.
Where PBM E-score of 8-mer equals or exceeds 0.2, the correct label is met; where it does not, the label is not met.

Is it the case that ACCACGTG has PBM E-score of 8-mer reaching or exceeding 0.2?
not met

Could you verify whether the entry AAGGTGCG shows PBM E-score of 8-mer of no less than 0.2?
met

Threshold query (PBM E-score of 8-mer >= 0.2) on AATGTGGC
not met

* * *

- System: PmTbr T-box DNA-binding domain (GST fusion);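 further: 200 nM protein in PBS on universal arrays averaged over duplicate arrays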
- Sequence: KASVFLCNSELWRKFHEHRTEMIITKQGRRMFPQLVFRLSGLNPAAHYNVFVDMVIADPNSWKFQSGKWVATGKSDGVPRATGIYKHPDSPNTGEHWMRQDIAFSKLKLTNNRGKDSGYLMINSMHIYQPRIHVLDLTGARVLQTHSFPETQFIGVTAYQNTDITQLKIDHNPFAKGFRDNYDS
- PROCEDURE_TEXT: PBM E-score of 8-mer (E-score (dimensionless, -0.5 to 0.5)); Tbr is Tbrain of the sea star Patiria miniata (Pm) or the sea urchin Strongylocentrotus purpuratus (Sp); higher = stronger binding preference
- APPLIED_CONDITIONS: target sequence: T-box / the construct has about 5 more residues each side
Over roughly 33,000 sequences, “E-score (dimensionless, -0.5 to 0.5)” has its median near -0.049; the highest 2% begin near 0.37. Only a selection was taken, and the highest values are over-represented in it overall.
If the reported PBM E-score of 8-mer equals or exceeds 0.04, assign true (1). If not, assign false (0).

Observe how each entry below is paired with its result.
# bool: PBM E-score of 8-mer of CATAACAA >= 0.04
true (1)

State whether the measured PBM E-score of 8-mer reaches 0.04, counting equality as reaching it, for CTCCATTC
false (0)

Answer whether PBM E-score of 8-mer of AGACACCG is greater than or equal to 0.04.
true (1)

Is reported PBM E-score of 8-mer greater than or equal to 0.04 here: GCCACTTA
true (1)

State whether the measured PBM E-score of 8-mer reaches 0.04, counting equality as reaching it, for ACATTTGA
false (0)

Exam item: decide whether the reported PBM E-score of 8-mer for CATTCACA is at least 0.04.
true (1)

Continuing:
Does AGACACCT have a reported PBM E-score of 8-mer of at least 0.04?
true (1)

Is reported PBM E-score of 8-mer greater than or equal to 0.04 here: AAACACCC
true (1)

I'd appreciate it if you could say whether ACACACCT has PBM E-score of 8-mer at least equal to 0.04.
true (1)

Check the entry AAACACCG : does PBM E-score of 8-mer equal or exceed 0.04?
true (1)
